Origin of values: ChEMBL document CHEMBL1201861

tested on: A2780; assay: cells; assay type: functional, cell-based; details: Homo sapiens;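 further: growth inhibition of A2780 cells, read out with a cell viability assay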
Description: SANGER: Inhibition of human A2780 cell growth in a cell viability assay.
pIC50: −log10 of the molar value.
outcome-measure: pIC50

Find the recorded pIC50 belonging to CC(C)=CC[C@@H](O)C1=CC(=O)c2c(O)ccc(O)c2C1=O [SHIKONIN] and report it.
5.59

Continue with C/C=C(/C)C(=O)O[C@H]1C(C)=C2[C@H]([C@@H]1OC(=O)CCCCCCC)[C@@](C)(OC(C)=O)C[C@H](OC(=O)CCC)[C@@]1(O)[C@H]2OC(=O)[C@@]1(C)O [THAPSIGARGIN]
> 8.70

Next: COc1cc(Nc2c(C#N)cnc3cc(OCCCN4CCN(C)CC4)c(OC)cc23)c(Cl)cc1Cl [BOSUTINIB]
< 5.70

// next record CC(=O)c1c(C)c2cnc(Nc3ccc(N4CCNCC4)cn3)nc2n(C2CCCC2)c1=O [PALBOCICLIB]
< 5.40

And for "O=c1cc(N2CCOCC2)oc2c(-c3cccc4c3sc3ccccc34)cccc12" ?
< 5.70
